Record form. Attribute: GI50. Fill in for each entry.
System: DLD-1
Assay: NCI tumour cell line growth inhibition, 48 h
The source made the active and inactive calls. Cut-off read from the data, not from the text of the source: active = GI50 up to about 1.1 µM and inactive = higher. *1 amine or outer side, *2 acyl side, *3 side chain or, on linkers, in order; H or OH if unused. Where a SMILES comes first, the peptide text is derived from it. Bridges are numbered along the chain shown (N, C = ends). [ ]: non-standard residue; d: D form. The star is where a group is joined. X56 = CC(C)C(C)C(C(=O)[*:2])N(C)[*:1]; Picolinoyl(3-OH) = O=C(c1ncccc1O)*; NMePhg = CN[CH](C(=O)O)c1ccccc1; Hyp = O=C(O)[CH]1C[CH](O)CN1; Sar = CNCC(=O)O

Answer with the recorded GI50 of Nc1ccc(C2=N/C(=C\c3cccc(N)c3)C(=O)O2)cc1 only. > 100 µM (inactive)

Answer with the recorded GI50 of CCc1nc2ccccc2c(=O)n1/N=C(\N=N\c1ccc(Cl)cc1)c1ccc(N(C)C)cc1 only. 30.1 µM (inactive)

Answer with the recorded GI50 of CCC1=C(C(C)=O)[C@@H]2CCCCC[C@@H](C(=O)OC)C2C1=O (stereo partly drawn) only. > 100 µM (inactive)

Answer with the recorded GI50 of CC(C)CC1NC(=O)C(NC(=O)c2ncccc2O)C(C)OC(=O)C(c2ccccc2)N(C)C(=O)C(C)NC(=O)C(C(C)C(C)C)N(C)C(=O)CN(C)C(=O)C2CC(O)CN2C1=O (stereo not drawn) ({Picolinoyl(3-OH)}-TL[Hyp][Sar][X56]A[NMePhg]; ester 1-C; configuration not given here) only. 82.4 µM (inactive)

Answer with the recorded GI50 of CCOC(=O)c1ccc(O)cc1 only. > 100 µM (inactive)

Answer with the recorded GI50 of CCOP(=O)(OCC)C(C(=O)OC)C(=O)C(=O)Nc1c(C)cc(Br)cc1C (stereo not drawn) only. > 100 µM (inactive)

Answer with the recorded GI50 of CCOc1ccc2c(c1)[n+]([O-])c(S(=O)(=O)c1ccc(C)cc1)c(N)[n+]2[O-] only. > 100 µM (inactive)

Answer with the recorded GI50 of O=C(N/N=C1\C(=O)N(c2nccs2)C(=O)C(=O)C1c1nc2ccccc2s1)c1ccccc1O (stereo not drawn) only. 71.1 µM (inactive)

* * *

Record form. Attribute: GI50. Fill in for each entry.
System: A549
Experiment: NCI tumour cell line growth inhibition, 48 h
Active and inactive are the calls of the source. Rule as the data show it: active = GI50 up to about 1.1 µM and inactive = higher.

Answer with the recorded GI50 of O=C(Nc1nc2ncn(CCOC(=O)c3ccccc3)c2c(=S)[nH]1)c1ccccc1 only. 66.2 µM (inactive)

Answer with the recorded GI50 of O=C(NCCCc1cn[nH]c(=O)n1)c1cccc2nc3ccccc3nc12 only. > 100 µM (inactive)

Answer with the recorded GI50 of O=C(O)CNC(=O)c1ccc2cc(C(=O)N3CC(CCl)c4ccc([N+](=O)[O-])cc43)[nH]c2c1 (stereo not drawn) only. > 100 µM (inactive)

Answer with the recorded GI50 of Cc1cn(C2CC(N)C(CN)O2)c(=O)[nH]c1=O (stereo not drawn) only. > 100 µM (inactive)

Answer with the recorded GI50 of Cc1ccc(SC(CCC(Sc2ccc(C)cc2)Sc2ccc(C)cc2)Sc2ccc(C)cc2)cc1 only. > 100 µM (inactive)

Answer with the recorded GI50 of CCOC(=O)CCC(NC(=O)C(N)Cc1ccc(N(CCCl)CCCl)cc1)C(=O)OCC (stereo not drawn) only. 2.72 µM (inactive)

Answer with the recorded GI50 of CC(=O)NNc1nc(C)c(C(/C=C/c2ccc(NC(C)=O)cc2)=N/NS(=O)(=O)c2ccc(C)cc2)s1 only. > 100 µM (inactive)

Answer with the recorded GI50 of COc1ccc(C(=O)Cc2c(C(=O)c3ccccc3)c3ccccc3n2C(=O)c2ccccc2)cc1 only. 35.7 µM (inactive)

Answer with the recorded GI50 of CC(=O)c1cc2ccccc2[n+]([O-])c1N only. > 100 µM (inactive)

Answer with the recorded GI50 of CC1CN1c1c(C(=O)/C=C/c2ccc(Cl)cc2)c(-c2ccccc2)nn(C)c1=O (stereo not drawn) only. 4.42 µM (inactive)

Answer with the recorded GI50 of CCOC(=O)C(=O)Nc1cc(Cl)ccc1Cl only. > 100 µM (inactive)

Answer with the recorded GI50 of COc1ccc2[nH]cc(/C=C(/C)c3ccncc3)c2c1 only. 8.36 µM (inactive)

Answer with the recorded GI50 of COc1ccccc1/C=C1/Sc2scc(CC(=O)Nc3ccccc3)[n+]2C1=O only. 31.5 µM (inactive)

Answer with the recorded GI50 of C1=CN2C[n+]3ccc4ccccc4c3N=C2c2ccccc21 only. 1.75 µM (inactive)

Answer with the recorded GI50 of CCCCCC(=O)OCC1(CO)C/C(=C\CC(C(C)C)C(C)C)C(=O)O1 (stereo not drawn) only. 76.9 µM (inactive)

Answer with the recorded GI50 of Cc1cn2c(=O)c3ccccc3nc2s1 only. > 100 µM (inactive)

Answer with the recorded GI50 of O=C(c1ccc(Cl)cc1Cl)N(C(=O)N1CCC(c2ccccc2)CC1)c1ccccc1 only. > 100 µM (inactive)

Answer with the recorded GI50 of FC1=C2CCCCCC2SC1(F)F (stereo not drawn) only. > 100 µM (inactive)

Answer with the recorded GI50 of CC(=O)c1ccc2c(c1)CC1(C2)Cc2cc3c(c(C(=O)O)c2C1)CCC3 (stereo not drawn) only. 37.9 µM (inactive)

Answer with the recorded GI50 of O=C1/C(=C/c2ccc(Cl)cc2)N=C(c2ccccc2)N1/N=C/c1ccccc1O only. 19.2 µM (inactive)

Answer with the recorded GI50 of CC1=NOC(=O)/C1=C/c1ccc2c(c1)OCO2 only. 61.8 µM (inactive)

Answer with the recorded GI50 of c1ccc([P+](c2ccccc2)(c2ccccc2)C2Sc3ccccc3S2)cc1 only. 15 µM (inactive)

Answer with the recorded GI50 of O=C(/C=C/c1c(O)ccc2ccccc12)c1cccc2ccccc12 only. > 100 µM (inactive)

Answer with the recorded GI50 of COC(=O)[C@@H](Nc1ccccc1)[C@@]1(C(=O)OC)SC12c1ccccc1-c1ccccc12 only. 44.8 µM (inactive)

Answer with the recorded GI50 of O=C(CN1CCCC1)Nc1ccc2c(c1)C1Oc3ccccc3CC1CO2 (stereo not drawn) only. 41.7 µM (inactive)

Answer with the recorded GI50 of O=C(Sc1c(-c2ccccc2)c(=O)n(-c2ccccc2)c(=S)n1-c1ccccc1)c1ccco1 only. > 100 µM (inactive)

Answer with the recorded GI50 of NC(=O)c1cc2ccc(O)cc2o/c1=N/NC(=O)c1ccccc1 only. > 100 µM (inactive)

Answer with the recorded GI50 of N#CN1CCC2CC(=O)CCC2C1 (stereo not drawn) only. > 100 µM (inactive)

Answer with the recorded GI50 of COc1ccc(NC2=CC(=O)C(=O)c3ccccc32)nn1 only. 3.1 µM (inactive)

Answer with the recorded GI50 of O=S1(=O)NN=C(NCc2ccc(F)cc2)c2ccccc21 only. > 90.2 µM (inactive)

Answer with the recorded GI50 of Cc1cc(=O)oc2cc(OC(=O)Nc3ccccc3)ccc12 only. 62.1 µM (inactive)

Answer with the recorded GI50 of C[C@H](CCC(=O)O)[C@H]1CC[C@H]2[C@@H]3[C@H](O)C[C@@H]4C[C@H](O)CC[C@]4(C)[C@H]3C[C@H](O)[C@]12C only. > 100 µM (inactive)

Answer with the recorded GI50 of COC(=O)/C=C/c1cnc2c(c1)oc(=O)n2CCc1ccccn1 only. > 100 µM (inactive)

Answer with the recorded GI50 of CN(NC(=O)c1ccco1)C1=NCCN1 only. > 100 µM (inactive)

Answer with the recorded GI50 of CC(=O)OC12/C(=N/O)CCCCCC1c1ccccc12 (stereo not drawn) only. > 100 µM (inactive)

Answer with the recorded GI50 of CC(C)(C)c1ccc(OCCOc2ccc(C(C)(C)C)cc2NC=O)c(NC=O)c1 only. 5.73 µM (inactive)

Answer with the recorded GI50 of CC1=C(C(=O)Nc2cccc(Cl)c2)C(c2ccccc2F)C(C(=O)Nc2cccc(Cl)c2)=C(C)N1 only. 7.78 µM (inactive)

Answer with the recorded GI50 of COC(=O)CCC12CCC(O1)c1ccccc12 (stereo not drawn) only. > 100 µM (inactive)

Answer with the recorded GI50 of CCc1cccc(C(C)CC)c1NC(=O)C(=O)Cc1nc2ccccc2o1 (stereo not drawn) only. > 50 µM (inactive)

Answer with the recorded GI50 of O=C(O)CNS(=O)(=O)c1ccc(NCc2ccccc2)cc1 only. > 100 µM (inactive)

Answer with the recorded GI50 of CC(=O)Nc1c(C)cc2c(nc3n2CCC3OC(C)=O)c1[N+](=O)[O-] (stereo not drawn) only. > 100 µM (inactive)

Answer with the recorded GI50 of N#CC1=C(N)n2c(s/c(=C\c3ccc(Cl)cc3)c2=O)=C(c2nc3ccccc3[nH]2)C1c1ccc(Cl)cc1 (stereo not drawn) only. 3.32 µM (inactive)

Answer with the recorded GI50 of CC1(C)CC2(C)CC1CC2O (stereo not drawn) only. > 100 µM (inactive)
